# Test name: in vivo
# Protocol conditions: mouse
Assay endpoint: selectivity ratio

Exercise: Indicate its recorded selectivity ratio; the compound in question is Clc1ccc(N2N=NCC2c2ccncc2)cc1 (stereo not shown) [Compound 9]
Key: 0.62

---

# Test name: in vivo
# Parameters: species or system mice
# Protocol conditions: mouse, in vivo, ip
Assay endpoint: TD50 (mg/kg)
Report as a plain number; the unit mg/kg is understood.

Exercise: Indicate its recorded TD50; the compound in question is Clc1ccc(N2N=NCC2c2ccncc2)cc1 (stereo not shown)
Key: 2050

---

# Test name: in vivo
# Protocol conditions: mouse, in vivo, ip, mice, i.p., 24-hour LD50; read-out: Ratio LD50/HD50
Assay endpoint: selectivity ratio
Give the value as a plain number.

Exercise: Indicate its recorded selectivity ratio; the compound in question is Clc1ccc(N2N=NCC2c2ccncc2)cc1 (stereo not shown) [Compound 9]
Key: 1.04

---

# Protocol conditions: mice, i.p.
Assay endpoint: Time of Test / time of peak effect (TPE), MES

>  <Compound>
CCCC(CCC)C(=O)O [Valproate, valproate]

>  <Observed measurement>
1/4

$$$$
>  <Compound>
CCC1(c2ccccc2)C(=O)NC(=O)NC1=O

>  <Observed measurement>
1 h

$$$$
>  <Compound>
Clc1ccc(N2N=NCC2c2ccncc2)cc1 (stereo not shown)

>  <Observed measurement>
1/2

$$$$

Next:
Exercise: Indicate its recorded Time of Test / time of peak effect (TPE), MES; the compound in question is CCC1(C)CC(=O)NC1=O (stereo not shown) [Ethosuximide, ethosuximide]
Key: 1/2

---

# Test name: in vivo
# Protocol conditions: mouse, po
Assay endpoint: TD50

Exercise: Indicate its recorded TD50; the compound in question is Clc1ccc(N2N=NCC2c2ccncc2)cc1 (stereo not shown) [Compound 9]
Key: 705 mg/kg

---

# Test name: in vivo
# Protocol conditions: rat, po
Assay endpoint: TD50 (mg/kg)
Report as a plain number; the unit mg/kg is understood.

Exercise: Indicate its recorded TD50; the compound in question is Clc1ccc(N2N=NCC2c2ccncc2)cc1 (stereo not shown) [Compound 9]
Key: 394
